Where do the numbers come from? From the supplement of paper PMC8728848.

Target: Neu5Ac(a2-8)Neu5Ac(a2-8)Neu5Ac(a2-3)Gal(b1-4)Glc
Assay: glycan array binding signal (z-score within array); higher = stronger binding
Settings: glycan notation: IUPAC condensed, linker removed
The full list was thinned out, with the strongest signals kept by preference.
// reported glycan array binding signal (z-score) for each item listed
experimental.endpoint: glycan array binding signal (z-score)

[
  {
    "binder": "RegIIIbeta (Mus musculus), P35230 (protein) MLPPTACSVMSWMLLSCLMLLSQVQGEDSLKNIPSARISCPKGSQAYGSYCYALFQIPQTWFDAELACQKRPGGHLVSVLNSAEASFLSSMVKRTGNSYQYTWIGLHDPTLGAEPNGGGWEWSNNDVMNYFNWERNPSTALDRAFCGSLSRASGFLKWRDMTCEVKLPYVCKFTG",
    "number": -0.118
  },
  {
    "binder": "CD83 (Homo sapiens) (protein) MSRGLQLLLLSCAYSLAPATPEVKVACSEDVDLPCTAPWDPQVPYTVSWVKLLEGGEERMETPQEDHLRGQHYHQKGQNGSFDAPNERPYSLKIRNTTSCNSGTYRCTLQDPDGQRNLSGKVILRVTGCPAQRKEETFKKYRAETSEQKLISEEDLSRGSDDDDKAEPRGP",
    "number": 3.7
  }
]
